Reference for the values: patent US7868204B2

system: HCT116 human colorectal carcinoma cells; assay: Antitumor activity in HCT116 human colorectal tumor xenograft model in vivo; parameters: species or system BALB/c nude mice; conditions: Mus musculus, ip; HCT 116 colorectal tumor model, 20 mg/kg i.p.; read-out: % Inhibition of Tumor Growth
Measurement Name: inhibition in vivo at 20 mg/kg
Write the quantity with the unit trailing the number.

Some entries whose results are on file:
[[record]]
compound_structure_string = "Nc1ccccc1NC(=O)c1ccc(Cn2c(=O)[nH]c3ccccc3c2=O)cc1"
measurement_name = "inhibition in vivo at 20 mg/kg"
result = "66%"

[[record]]
compound_structure_string = "Nc1ccccc1NC(=O)/C=C/c1ccc(NCc2cccc(OC(F)(F)F)c2)nc1"
measurement_name = "inhibition in vivo at 20 mg/kg"
result = "52%"

[[record]]
compound_structure_string = "COc1cc(NCc2ccc(/C=C/C(=O)Nc3ccccc3N)cc2)cc(OC)c1OC"
measurement_name = "inhibition in vivo at 20 mg/kg"
result = "80%"


Let's switch to this compound now.
Q. Annotate the compound `Nc1ccccc1NC(=O)c1ccc(Cn2cnc3ccccc3c2=O)cc1` with its measured inhibition in vivo at 20 mg/kg.
A. 23%

###

Exercise: for every item that follows, state its recorded IC50.
system: HCT116 cells; experiment: MTT assay; type: cell-based; settings: Homo sapiens, HCT-116, 72 h, Table 5F; HCT116 cells, 72 hours
One number for each entry, in nM.

[[record]]
molecule = "COc1cc(N2CC(c3ccc(C(=O)Nc4ccccc4N)cc3)OC2=O)cc(OC)c1OC (stereo not drawn) [compound 297]"
measurement_name = "IC50"
numeric_result = 400


Hey, quick one: what's IC50 for each of these?
1. Nc1ccccc1NC(=O)c1ccc(C#Cc2ccccc2)cc1 [Cpd 196]
2. COc1ccc(CNc2ccc(C(=O)Nc3ccccc3N)cc2)cc1OC [Cpd 434]
3. Cc1cc(C)nc(OCc2ccc(C(=O)Nc3ccccc3N)cc2)n1 [Cpd 384]
4. Cc1cc(C)cc(NCc2ccc(C(=O)Nc3ccccc3N)cc2)c1 [Cpd 407]
5. Cc1ccc(Sc2ccc(C(=O)Nc3ccccc3N)cn2)cc1 [Cpd 464]
6. CCC1(C)CC(=O)N(Cc2ccc(C(=O)Nc3ccccc3N)cc2)C(=O)C1 [Cpd 180]

A.
1: 3000; 2: 600; 3: 2000; 4: 2000; 5: 11000; 6: 2000

Hey, quick one: what's IC50 for each of these?
1. COc1ccc(C2=NCC(c3ccc(C(=O)Nc4ccccc4N)cc3)O2)cc1OC (stereo not drawn) [compound 305]
2. Nc1ccccc1NC(=O)c1ccc(CSc2nc3cc(OCCN4CCOCC4)ccc3[nH]2)cc1 [Cpd 236]

A.
[2000, 6000]

###

Exercise: for every item that follows, state its recorded IC50.
biological target: cloned recombinant human HDAC-1 (Homo sapiens); construct: made in house; host or cells: Baculovirus insect cell expression system; assay: Human HDAC-1 enzyme inhibition, Assay 1 ([3H]-acetylated histone substrate, scintillation counting); assay type: biochemical; settings: Table 5F; read-out: Human HDAC-1 IC50
Sequence (Q13547 whole entry): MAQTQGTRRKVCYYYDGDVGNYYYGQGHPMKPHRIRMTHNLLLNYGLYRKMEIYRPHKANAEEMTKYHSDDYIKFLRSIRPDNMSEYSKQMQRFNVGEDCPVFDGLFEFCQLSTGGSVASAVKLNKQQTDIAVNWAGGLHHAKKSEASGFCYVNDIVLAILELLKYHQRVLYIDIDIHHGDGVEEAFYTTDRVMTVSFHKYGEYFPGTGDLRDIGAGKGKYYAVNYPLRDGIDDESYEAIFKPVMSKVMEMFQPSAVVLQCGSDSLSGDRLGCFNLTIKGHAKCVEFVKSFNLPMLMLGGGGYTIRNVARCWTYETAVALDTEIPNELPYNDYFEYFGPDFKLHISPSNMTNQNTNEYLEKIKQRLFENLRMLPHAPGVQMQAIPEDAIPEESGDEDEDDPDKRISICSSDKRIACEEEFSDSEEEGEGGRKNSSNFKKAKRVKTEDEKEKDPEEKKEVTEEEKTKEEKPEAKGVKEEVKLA

Some entries whose results are on file:
[[record]]
compound_structure_string = "CCC1(C)CC(=O)N(Cc2ccc(C(=O)Nc3ccccc3N)cc2)C(=O)C1"
measurement_name = "IC50"
result = "3 µM"

[[record]]
compound_structure_string = "Nc1ccccc1NC(=O)c1ccc(Sc2ccc3ccccc3n2)nc1"
measurement_name = "IC50"
result = "4 µM"

[[record]]
compound_structure_string = "COc1cccc(SCc2ccc(C(=O)Nc3ccccc3N)cc2)c1"
measurement_name = "IC50"
result = "4 µM"

[[record]]
compound_structure_string = "Nc1ccccc1NC(=O)c1ccc(NCc2cccc(F)c2)cc1"
measurement_name = "IC50"
result = "3 µM"


Let's switch to this compound now.
Q. Annotate the compound `CN(C)CCn1c(=O)n(Cc2ccc(C(=O)Nc3ccccc3N)cc2)c(=O)c2ccccc21` with its measured IC50.
A. 2 µM

###

Exercise: for every item that follows, state its recorded pIC50.
tested on: HCT116 cells; assay: MTT assay; type: cell-based; conditions: Homo sapiens, HCT-116, 72 h, Table 5F; HCT116 cells, 72 hours
Numbers only, as −log10 of the molar value.

Some entries whose results are on file:
[[record]]
compound = "COc1ccc(NCc2ccc(C(=O)Nc3ccccc3N)cc2)cc1"
measurement_name = "pIC50"
numeric_result = 5.70

[[record]]
compound = "Nc1ccccc1NC(=O)c1ccc(Cn2c(=O)oc3ccccc3c2=O)cc1"
measurement_name = "pIC50"
numeric_result = 6.52


Hey, quick one: what's pIC50 for each of these?
1. Nc1ccccc1NC(=O)c1ccc(CNc2nc3ccc(OCCN4CCOCC4)cc3s2)cc1
2. COc1cc(C2CCC(c3ccc(C(=O)Nc4ccccc4N)cc3)O2)cc(OC)c1OC (centres unmarked)
3. COc1ccc(C2C=CC(c3ccc(C(=O)Nc4ccccc4N)cc3)O2)cc1 (centres unmarked)

A.
1: 6.52; 2: 5.52; 3: 5.70

Hey, quick one: what's pIC50 for each of these?
1. COc1ccc(Nc2ccnc(NCc3ccc(C(=O)Nc4ccccc4N)cc3)n2)cc1OC
2. Cc1sc2ncn(Cc3ccc(C(=O)Nc4ccccc4N)cc3)c(=O)c2c1C
3. Nc1ccccc1NC(=O)c1ccc(Cc2noc(-c3cccnc3)n2)cc1
4. Nc1ccccc1NC(=O)c1ccc(CN2C(=O)CSc3ccccc32)cc1

A.
6.40
6.52
6.40
6.52

###

Test system: HCT116 cells
Assay: MTT assay
Assay type: cell-based
Details: Homo sapiens, HCT-116, 72 h, Table 5F; HCT116 cells, 72 hours
Description: HCT116 cells (2000/well) were plated into 96-well tissue culture plates one day before compound treatment. Compounds at various concentrations were added to the cells. The cells were incubated for 72 hours at 37° C. in 5% CO2 incubator. […]
Our labelling divides records by IC50 into ranges: Low: < 600 nM; Mid: ≥ 600 nM and < 1000 nM; High: ≥ 1000 nM

[[record]]
molecule = "Nc1ccccc1NC(=O)c1ccc(Oc2ccccc2)cc1 [Cpd 366, N-(2-Amino-phenyl)-4-phenoxy-benzamide]"
experimental_system = "HCT116 cells"
class_name = "High"


Q. Quick check: band for `Nc1ccccc1NC(=O)c1ccc(-c2ccc(CNCc3ccccn3)s2)cc1`
A. High

Q. Quick check: band for `Nc1ccccc1NC(=O)c1ccc(CNc2ccc3c(c2)OCO3)cc1`
A. Mid

###

biological target: cloned recombinant human HDAC-1 (Homo sapiens); construct: made in house; host or cells: Baculovirus insect cell expression system; test: Human HDAC-1 enzyme inhibition, Assay 1 ([3H]-acetylated histone substrate, scintillation counting); format: biochemical; settings: Table 5F; read-out: Human HDAC-1 IC50
Measurement Name: IC50 (µM)
Numbers only, in µM.

Some entries whose results are on file:
[[record]]
molecule = "COc1cc(-c2ccc3sc(NCc4ccc(C(=O)Nc5ccccc5N)cc4)nc3c2)cc(OC)c1OC [Cpd 231]"
experimental_system = "cloned recombinant human HDAC-1 (Homo sapiens)"
measurement_name = "IC50"
numeric_result = 4

[[record]]
molecule = "COc1cc(N2C(=O)OCC2c2ccc(C(=O)Nc3ccccc3N)cc2)cc(OC)c1OC (stereo not shown)"
experimental_system = "cloned recombinant human HDAC-1 (Homo sapiens)"
measurement_name = "IC50"
numeric_result = 20

[[record]]
molecule = "Nc1ccccc1NC(=O)c1ccc(CNc2ccc3[nH]c(SCc4cccnc4)nc3c2)cc1"
experimental_system = "cloned recombinant human HDAC-1 (Homo sapiens)"
measurement_name = "IC50"
numeric_result = 4


Let's switch to this molecule now.
Q. Annotate the molecule `Cc1cc(Cl)nc(NCc2ccc(C(=O)Nc3ccccc3N)cc2)n1` with its measured IC50.
A. 3

###

test system: HCT116 cells; experiment: MTT assay; type: cell-based; settings: Homo sapiens, HCT-116, 72 h, Table 5F; HCT116 cells, 72 hours
Measurement Name: pIC50
Numbers only, as −log10 of the molar value.

Some entries whose results are on file:
[[record]]
compound = "Cc1nc(Cc2ccc(C(=O)Nc3ccccc3N)cc2)no1"
measurement_name = "pIC50"
numeric_result = 5.30

[[record]]
compound = "Nc1ccccc1NC(=O)c1ccc(CSc2ncc[nH]2)cc1"
measurement_name = "pIC50"
numeric_result = 5.30

[[record]]
compound = "Nc1ccccc1NC(=O)c1ccc(Sc2ccc3ccccc3n2)nc1"
measurement_name = "pIC50"
numeric_result = 5.10

[[record]]
compound = "COc1cc2ncn(Cc3ccc(C(=O)Nc4ccccc4N)cc3)c(=O)c2cc1OC"
measurement_name = "pIC50"
numeric_result = 6.30

[[record]]
compound = "Nc1ccccc1NC(=O)c1ccc(NCc2cccc(OC(F)(F)F)c2)cc1"
measurement_name = "pIC50"
numeric_result = 6.22

[[record]]
compound = "COc1ccc(NCc2ccc(C(=O)Nc3cscc3N)cc2)cc1OC [424c]"
measurement_name = "pIC50"
numeric_result = 6.10


Let's switch to this compound now.
Q. Annotate the compound `Cc1nc2ccccc2c(=O)n1Cc1ccc(C(=O)Nc2ccccc2N)cc1` with its measured pIC50.
A. 6.22
